- Test system: disorders of cardiac rhythm provoked by aconitine in rats
- Format: in vivo
- TEST PARAMETERS: ED50 rat i.v. / LD50 mouse i.v.
Structures can show the parent of a compound that is named as a salt.
Define the label as Fulfilled when Therap. index (ED50/LD50) is strictly less than 0.04 and as Not fulfilled in all remaining cases.

| MOLECULE | GROUP |
| --- | --- |
| CN1CC2CN(C)CC(C1)C2Oc1ccc(Cl)cc1.O=C(O)/C=C/C(=O)O (stereo not shown) | Fulfilled |
| CN1CC2CN(C)CC(C1)C2OC(=O)C1c2ccccc2Oc2ccccc21 (stereo not shown) | Fulfilled |
| CN1CC2CN(C)CC(C1)C2Oc1ccccc1.O=C(O)/C=C/C(=O)O (stereo not shown) | Fulfilled |
| CCOc1ccc(C(=O)OC2C3CN(C)CC2CN(C)C3)cc1OC (stereo not shown) | Not fulfilled |
| CCN1CC2CN(C)CC(C1)C2OC(=O)c1ccc(-c2ccccc2)cc1 (stereo not shown) | Not fulfilled |
| CN1CC2CN(C)CC(C1)C2OC(=O)c1ccc2ccccc2c1 (stereo not shown) | Fulfilled |
| CN1CC2CN(C)CC(C1)C2OC(=O)c1ccccc1 (stereo not shown) | Fulfilled |
| CCN1CC2CN(C)CC(C1)C2OC(=O)c1ccc(Cl)cc1Cl (stereo not shown) [dihydrochloride] | Not fulfilled |
| CCCCN1CC2CN(CCCC)CC(C1)C2OC(=O)c1ccc(Cl)cc1 (stereo not shown) | Not fulfilled |
| CCN1CC2CN(CC)CC(C1)C2OC(=O)c1ccc(Cl)cc1.Cl.Cl.O (stereo not shown) | Fulfilled |
| CCN1CC2CN(C)CC(C1)C2Oc1ccc(Cl)cc1 (stereo not shown) | Fulfilled |
| CN1CC2CN(C)CC(C1)C2OC(c1ccccc1)c1ccccc1.O=C(O)/C=C/C(=O)O (stereo not shown) | Not fulfilled |
